Assay Target: mAChR M1 (UniProt P11229)
Method Notes: mAChR M1 cell-based functional assay (calcium mobilization, potentiation of EC20 acetylcholine response)
Test Context: CHO-K1 cells expressing mAChR M1; increase in EC20 acetylcholine response; >10 μM estimated where no plateau in the curve
Measurement Kind: EC50 (µM)
Numeric only. Scale: µM

Past entries and their recorded results:
{"columns": ["Compound", "Unit Descriptor", "Measured"],
 "data": [
  ["CCN1CCC2(C1)C(=O)N(Cc1ccc(-c3cnn(C)c3)cc1F)c1ccccc12 (centres unmarked)", "µM", 3.2],
  ["Cn1cc(-c2ccc(CN3C(=O)C4(CCN(C5COC5)CC4)c4ccccc43)c(F)c2)cn1", "µM", 7]
]}

Okay, now this compound:
query: Using the record for Cn1cc(-c2ccc(CN3C(=O)C4(CCN(C5CCCSC5)CC4)c4ccccc43)c(F)c2)cn1 (centres unmarked) , report its EC50.
result: 3.7

###

Assay Target: UniProt P11229
Method Notes: mAChR M1 cell-based functional assay (calcium mobilization, potentiation of EC20 acetylcholine response)
Test Context: % ACh maximum at 30 μM
Measurement Kind: Emax (%)

{"columns": ["Compound", "Assay Target", "Measurement Kind", "Unit Descriptor", "Measured"],
 "data": [
  ["Cn1cc(-c2ccc(CN3C(=O)C4(CCN(C(=O)C5CCC5)C4)c4ccccc43)c(F)c2)cn1 (stereo not drawn) [Compound B51]", "UniProt P11229", "Emax", "%", 50],
  ["Cn1cc(-c2ccc(CN3C(=O)C4(CCN(C5CCCOC5)CC4)c4ccccc43)c(F)c2)cn1 (stereo not drawn) [Compound B38]", "UniProt P11229", "Emax", "%", 50],
  ["Cn1cc(-c2ccc(CN3C(=O)C4(CCN(C5CCCC5)CC4)c4ccccc43)c(F)c2)cn1 [Compound B46]", "UniProt P11229", "Emax", "%", 34]
]}

[A] Cn1cc(-c2ccc(CN3C(=O)C4(CCN(C5CCCOC5)C4)c4ccccc43)c(F)c2)cn1 (single isomer, unassigned) [Compound B34]
[B] Cn1cc(-c2ccc(CN3C(=O)C4(CCN(C5CCOCC5)C4)c4ccccc43)c(F)c2)cn1 (stereo not drawn) [Compound B10]
query: A or B : whose Emax is greater? Indicate which entry you chose by stating its label.
result: B

###

Assay Target: mAChR M1 (UniProt P11229)
Method Notes: mAChR M1 cell-based functional assay (calcium mobilization, potentiation of EC20 acetylcholine response)
Test Context: % ACh maximum at 30 μM
Measurement Kind: Emax (%)

{"columns": ["Molecule", "Unit Descriptor", "Emax"],
 "data": [
  ["Cn1cc(-c2ccc(CN3C(=O)C4(CCN(C(=O)C5CC5)C4)c4ccccc43)c(F)c2)cn1 (stereo not shown)", "%", 56],
  ["Cn1cc(-c2ccc(CN3C(=O)C4(CCCO4)c4ccccc43)cc2)cn1 (stereo not shown)", "%", 45],
  ["Cc1nn(C)cc1-c1ccc(CN2C(=O)C3(CCN(C4CCCC4)C3)c3ccccc32)c(F)c1 (stereo not shown)", "%", 51],
  ["Cn1cc(-c2ccc(CN3C(=O)C4(CCN(C5CCCC5)C4)c4ccccc43)cc2)cn1 (stereo not shown)", "%", 43]
]}

###

Assay Target: mAChR M1 (UniProt P11229)
Method Notes: mAChR M1 cell-based functional assay (calcium mobilization, potentiation of EC20 acetylcholine response)
Test Context: CHO-K1 cells expressing mAChR M1; increase in EC20 acetylcholine response; >10 μM estimated where no plateau in the curve
pEC50: −log10 of the molar value.
Measurement Kind: pEC50

Past entries and their recorded results:
{"columns": ["Compound", "Assay Target", "Measured"],
 "data": [
  ["Cn1cc(-c2ccc(CN3C(=O)C4(CCN(CC(F)F)C4)c4ccccc43)c(F)c2)cn1 (stereo not drawn)", "mAChR M1 (UniProt P11229)", 5.47],
  ["Cn1cc(-c2ccc(CN3C(=O)C4(CCN(C5CCCC5)C4)c4ccccc43)c(F)c2)cn1 (stereo not drawn)", "mAChR M1 (UniProt P11229)", 5.80]
]}

[A] CN1CCC2(C1)C(=O)N(Cc1ccc(-c3cnn(C)c3)cc1F)c1ccccc12 (single isomer, unassigned) [Compound B16]
[B] Cn1cc(-c2ccc(CN3C(=O)C4(CCN(C(=O)c5ccccc5)C4)c4ccccc43)c(F)c2)cn1 (single isomer, unassigned) [Compound B45]
query: Which record shows the lower pEC50: the first, A , or the second, B ? Indicate which entry you chose by stating its label.
result: B

[A] Cn1cc(-c2ccc(CN3C(=O)C4(CCN(C5CCCCC5F)C4)c4ccccc43)c(F)c2)cn1 (stereo not drawn)
[B] Cn1cc(-c2ccc(CN3C(=O)C4(CCN(C(=O)c5ccccc5)C4)c4ccccc43)c(F)c2)cn1 (single isomer, unassigned) [Compound B47]
query: Which record shows the lower pEC50: the first, A , or the second, B ? Indicate which entry you chose by stating its label.
result: B
(B: 5.24, A: 5.52)

###

In this section, each of the compounds is paired with its reported EC50.
Assay Target: mAChR M1 (UniProt P11229)
Method Notes: mAChR M1 cell-based functional assay (calcium mobilization, potentiation of EC20 acetylcholine response)
Test Context: CHO-K1 cells expressing mAChR M1; increase in EC20 acetylcholine response; >10 μM estimated where no plateau in the curve
Method: Chinese hamster ovary (CHO-K1) cells stably expressing rat (r)M1 were purchased from the American Type Culture Collection and cultured according to their indicated protocol. […] Calcium flux was measured using the Functional Drug Screening System (FDSS) 6000 (Hamamatsu Corporation, Tokyo, Japan) as an increase in the fluorescent static ratio. […] Agonist activity was analyzed as a concentration-dependent increase in calcium mobilization upon compound addition. […]

Past entries and their recorded results:
{"columns": ["Compound", "Assay Target", "Measured"],
 "data": [
  ["Cn1cc(-c2ccc(CN3C(=O)C4(CCN(S(C)(=O)=O)C4)c4ccccc43)c(F)c2)cn1 (stereo not drawn)", "mAChR M1 (UniProt P11229)", "> 10 µM"],
  ["CC(=O)N1CCC2(C1)C(=O)N(Cc1ccc(-c3cnn(C)c3)cc1F)c1ccccc12 (stereo not drawn)", "mAChR M1 (UniProt P11229)", "> 10 µM"]
]}

Okay, now this compound:
query: Give EC50 (mAChR M1 (UniProt P11229)) of the following compound: Cn1cc(-c2ccc(CN3C(=O)C4(CCN(CC5CCCCC5)C4)c4ccccc43)c(F)c2)cn1 (single isomer, unassigned) [Compound B73]
result: > 10 µM

###

Assay Target: UniProt:P11229
Method Notes: mAChR M1 cell-based functional assay (calcium mobilization, potentiation of EC20 acetylcholine response)
Test Context: % ACh maximum at 30 μM
Protocol: Chinese hamster ovary (CHO-K1) cells stably expressing rat (r)M1 were purchased from the American Type Culture Collection and cultured according to their indicated protocol. […] Calcium flux was measured using the Functional Drug Screening System (FDSS) 6000 (Hamamatsu Corporation, Tokyo, Japan) as an increase in the fluorescent static ratio. […] Agonist activity was analyzed as a concentration-dependent increase in calcium mobilization upon compound addition. […]
Measurement Kind: Emax (%)

{"columns": ["Molecule", "Emax [%]"],
 "data": [
  ["CC1CCCC1N1CCC2(C1)C(=O)N(Cc1ccc(-c3cnn(C)c3)cc1F)c1ccccc12 (stereo not drawn)", 51],
  ["CN1CCC2(C1)C(=O)N(Cc1ccc(-c3cnn(C)c3)cc1F)c1ccccc12 (racemic) [Compound B18]", 62],
  ["Cn1cc(-c2ccc(CN3C(=O)C4(CCN(C5CCSCC5)C4)c4ccccc43)c(F)c2)cn1 (stereo not drawn)", 58],
  ["Cn1cc(-c2cc(F)c(CN3C(=O)C4(CCN(C5CCCC5)C4)c4ccccc43)cc2F)cn1 (stereo not drawn)", 62],
  ["Cn1cc(-c2ccc(CN3C(=O)C4(CCN(C5CCCCCC5)C4)c4ccccc43)c(F)c2)cn1 (stereo not drawn)", 51],
  ["Cn1cc(-c2ccc(CN3C(=O)C4(CCN(C(=O)C5CCCCC5)C4)c4ccccc43)c(F)c2)cn1 (stereo not drawn)", 54]
]}

###

Assay Target: mAChR M1 (UniProt P11229)
Sequence (P11229 1-460): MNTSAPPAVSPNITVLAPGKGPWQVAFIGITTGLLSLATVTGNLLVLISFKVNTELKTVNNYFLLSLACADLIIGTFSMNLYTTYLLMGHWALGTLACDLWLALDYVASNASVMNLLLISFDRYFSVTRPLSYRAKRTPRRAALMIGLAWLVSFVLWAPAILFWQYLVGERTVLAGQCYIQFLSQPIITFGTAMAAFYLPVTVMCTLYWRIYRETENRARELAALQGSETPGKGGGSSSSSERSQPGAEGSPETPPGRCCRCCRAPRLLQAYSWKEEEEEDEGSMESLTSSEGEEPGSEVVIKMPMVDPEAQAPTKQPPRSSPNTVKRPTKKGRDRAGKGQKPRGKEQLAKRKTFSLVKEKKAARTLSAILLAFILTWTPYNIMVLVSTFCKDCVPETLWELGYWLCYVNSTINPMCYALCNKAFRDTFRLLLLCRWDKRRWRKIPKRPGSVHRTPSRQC
Method Notes: mAChR M1 cell-based functional assay (calcium mobilization, potentiation of EC20 acetylcholine response)
Test Context: % ACh maximum at 30 μM
Measurement Kind: Emax (%)

{"columns": ["Molecule", "Emax [%]"],
 "data": [
  ["Cn1cc(-c2ccc(CN3C(=O)C4(CCN(C5CCCC5)C4)c4ccccc43)cc2F)cn1 (stereo not shown)", 36],
  ["CC(C)N1CCC2(C1)C(=O)N(Cc1ccc(-c3cnn(C)c3)cc1F)c1ccccc12 (stereo not shown)", 32],
  ["CN1CCC2(CC1)C(=O)N(Cc1c(F)cc(-c3ccc4c(c3)CC(=O)N4)cc1F)c1ccccc12", 38]
]}

Origin of measurements: patent US9073935B2
